Measured values drawn from patent US8846671B2 for this set.

Test system: U937 Cell line
test.protocol: tumor cell proliferation, MTT or CCK8 assay, 72 h incubation
Assay type: cell-based
condition.notes: Homo sapiens, U-937; 72 h, MTT or CCK8; nM; read-out: IC50 on tumor cell proliferation, U937
Method: The heterocyclic alkynyl benzene compounds at different concentrations (1×10^−10˜1×10^−5M) were incubated for 72 hours individually applied to 6 cell lines K562 (human CML cell line), MOLT-4 (human ALL cell line), U937 (human CML cell line), MEG-01 (human CML cell line), L78 (human lung cancer cell line), Ba/F3-T315I (mice Pro-B cells transformed with Bcr-AblT315I and STI57′-resistant cell line). […]
Entries and their IC50
parameter.measured: IC50

> print(dat)
                               query.smiles  parameter.measured  value.reported
1  Cc1cn(-c2cc(NC(=O)c3ccc(C)c(C#Cc4cnc5ncnn5c4)c3)cc(C(F)(F)F)c2)cn1                IC50        > 100 nM
2  CCN(CC)c1ncc(C#Cc2cc(C(=O)Nc3cc(-n4cnc(C)c4)cc(C(F)(F)F)c3)ccc2C)cn1                IC50          126 nM
3  Cc1ccc(C(=O)Nc2cc(-n3ccnc3)cc(C(F)(F)F)c2)cc1C#Cc1cnc2ccnn2c1                IC50         2210 nM
4  Cc1cn(-c2cc(NC(=O)c3ccc(C)c(C#Cc4cnc5[nH]ncc5c4)c3)cc(C(F)(F)F)c2)cn1                IC50        > 100 nM
5  Cc1ncn(-c2cc(NC(=O)c3ccc(C)c(C#Cc4cnc5ccnn5c4)c3)cc(C(F)(F)F)c2)n1                IC50        > 100 nM
6  Cc1cn(-c2cc(NC(=O)c3ccc(C)c(C#Cc4cnc5nccn5c4)c3)cc(C(F)(F)F)c2)cn1                IC50        > 100 nM

* * *

Tested on: MEG-01 (Human megakaryoblastic leukaemia cell line)
test.protocol: tumor cell proliferation, MTT or CCK8 assay, 72 h incubation
Assay type: cell-based
condition.notes: MEG-01, 72 h, MTT or CCK8, no unit in cell, read-out: IC50 on tumor cell proliferation, MEG-01
parameter.measured: IC50 (µM)

> print(dat)
                                   molecule  parameter.measured  unit.annotation  value.reported
1  Cc1ccc(C(=O)Nc2cc(-n3ccnc3)cc(C(F)(F)F)c2)cc1C#Cc1cnc(NC2CC2)nc1 [D729]                IC50               µM            6.58

* * *

test.protocol: Pharmacokinetics and bioavailability in rats
Type: in vivo
condition.notes: both sexes, Sprague-Dawley, rat, plasma, iv, 25 mg/kg, SD rats, IV 25 mg/kg
Counter-ions that a name gives are not always drawn.
parameter.measured: half-life (h)

> print(dat)
                                   compound  unit.annotation  value.reported
1  CNc1ncc(C#Cc2cc(C(=O)Nc3cc(-n4cnc(C)c4)cc(C(F)(F)F)c3)ccc2C)cn1 [D800 hydrochloride salt]                h             7.8

* * *

test.protocol: Pharmacokinetics and bioavailability in rats
Assay type: in vivo
condition.notes: both sexes, Sprague-Dawley, rat, plasma, po, 20 mg/kg, SD rats, PO 20 mg/kg; read-out: Tmax
Where a name gives a salt, the structure may show the parent alone.
parameter.measured: Tmax (h)

> print(dat)
                                   molecule  value.reported
1  Cc1cn(-c2cc(NC(=O)c3ccc(C)c(C#Cc4cnc(NC(C)C)nc4)c3)cc(C(F)(F)F)c2)cn1 [D752 mesylate salt]              20
